# assay.system: Collagenase 3 (Homo sapiens, UniProt P45452)
# assay.summary: Inhibition of human recombinant MMP13
Mark criterion met only for IC50 values smaller than 1000 nM; exact matches and larger values are criterion not met.

smiles.input: CC(C)[C@H](NS(=O)(=O)c1ccc2c(c1)oc1cc(N3CCOC3=O)ccc12)C(=O)O
assay.system: Collagenase 3 (Homo sapiens, UniProt P45452)
group: criterion met
--
smiles.input: CC(C)[C@H](NS(=O)(=O)c1ccc2c(c1)oc1cc(NC(=O)NCCc3cccs3)ccc12)C(=O)O
assay.system: Collagenase 3 (Homo sapiens, UniProt P45452)
group: criterion met
--
smiles.input: CC(C)[C@H](NS(=O)(=O)c1ccc2c(c1)sc1cc(N)ccc12)C(=O)O
assay.system: Collagenase 3 (Homo sapiens, UniProt P45452)
group: criterion not met
--
smiles.input: COC(=O)Nc1ccc2c(c1)sc1cc(S(=O)(=O)N[C@@H](C(=O)O)C(C)C)ccc12
assay.system: Collagenase 3 (Homo sapiens, UniProt P45452)
group: criterion not met
--
smiles.input: CC(C)[C@H](NS(=O)(=O)c1ccc2c(c1)oc1cc(N)ccc12)C(=O)O
assay.system: Collagenase 3 (Homo sapiens, UniProt P45452)
group: criterion not met
--
smiles.input: CC(C)[C@H](NS(=O)(=O)c1ccc2c(c1)sc1ccc(NS(C)(=O)=O)cc12)C(=O)O
assay.system: Collagenase 3 (Homo sapiens, UniProt P45452)
group: criterion not met
--
smiles.input: CC(C)[C@H](NS(=O)(=O)c1ccc2c(c1)sc1cc(N3CCOC3=O)ccc12)C(=O)O
assay.system: Collagenase 3 (Homo sapiens, UniProt P45452)
group: criterion met
--
smiles.input: CC(C)[C@@H](NS(=O)(=O)c1ccc2c(c1)sc1cc(NC(=O)Nc3ccccc3)ccc12)C(=O)O
assay.system: Collagenase 3 (Homo sapiens, UniProt P45452)
group: criterion not met
--
smiles.input: CC(C)[C@H](NS(=O)(=O)c1ccc2sc3ccccc3c2c1)C(=O)O
assay.system: Collagenase 3 (Homo sapiens, UniProt P45452)
group: criterion not met

----------
# assay.system: Collagenase 3 (Homo sapiens)
# assay.summary: Inhibition of human recombinant MMP13
readout: IC50 (µM)

smiles.input: CC(C)[C@H](NS(=O)(=O)c1ccc2c(c1)sc1cc(NC(=O)Oc3ccccc3)ccc12)C(=O)O
measure.unit: µM
reported.measurement: 0.225

smiles.input: COC(=O)Nc1ccc2sc3cc(S(=O)(=O)N[C@@H](C(=O)O)C(C)C)ccc3c2c1
measure.unit: µM
reported.measurement: 0.00122

smiles.input: CCNC(=O)Nc1ccc2c(c1)sc1cc(S(=O)(=O)N[C@H](C(=O)O)C(C)C)ccc12
measure.unit: µM
reported.measurement: 0.809

smiles.input: COC(=O)Nc1ccc2c(c1)sc1cc(S(=O)(=O)N[C@H](C(=O)O)C(C)C)ccc12
measure.unit: µM
reported.measurement: 0.632

smiles.input: CC(C)[C@H](NS(=O)(=O)c1ccc2c(c1)sc1cc(NC(=O)Nc3ccccc3)ccc12)C(=O)O
measure.unit: µM
reported.measurement: 0.269

smiles.input: CC(C)[C@H](NS(=O)(=O)c1ccc2c(c1)sc1cc(NC(=O)Oc3ccc(F)cc3)ccc12)C(=O)O
measure.unit: µM
reported.measurement: 0.217

----------
The entries below come with measured log10 IC50 values attached.
# assay.system: Collagenase 3 (Homo sapiens, UniProt P45452)
# assay.summary: Inhibition of human recombinant MMP13
readout: log10 IC50 (log10 of the value in nM)

smiles.input: CC(C)[C@H](NS(=O)(=O)c1ccc2c(c1)sc1cc(NC(=O)OCCS(C)(=O)=O)ccc12)C(=O)O
reported.measurement: 1.60
//
smiles.input: COC(=O)Nc1ccc2c(c1)oc1cc(S(=O)(=O)N[C@@H](C(=O)O)C(C)C)ccc12
reported.measurement: 2.33
//
smiles.input: CC(C)OC(=O)Nc1ccc2c(c1)sc1cc(S(=O)(=O)N[C@H](C(=O)O)C(C)C)ccc12
reported.measurement: 2.17
//
smiles.input: C#CCCOC(=O)Nc1ccc2c(c1)sc1cc(S(=O)(=O)N[C@H](C(=O)O)C(C)C)ccc12
reported.measurement: 1.36
//
smiles.input: COC(=O)Nc1ccc2c(c1)oc1cc(S(=O)(=O)N[C@H](C(=O)O)C(C)C)ccc12
reported.measurement: 2.70

----------
# assay.system: A disintegrin and metalloproteinase with thrombospondin motifs 4 (Homo sapiens, UniProt O75173)
# Sequence (O75173 whole entry): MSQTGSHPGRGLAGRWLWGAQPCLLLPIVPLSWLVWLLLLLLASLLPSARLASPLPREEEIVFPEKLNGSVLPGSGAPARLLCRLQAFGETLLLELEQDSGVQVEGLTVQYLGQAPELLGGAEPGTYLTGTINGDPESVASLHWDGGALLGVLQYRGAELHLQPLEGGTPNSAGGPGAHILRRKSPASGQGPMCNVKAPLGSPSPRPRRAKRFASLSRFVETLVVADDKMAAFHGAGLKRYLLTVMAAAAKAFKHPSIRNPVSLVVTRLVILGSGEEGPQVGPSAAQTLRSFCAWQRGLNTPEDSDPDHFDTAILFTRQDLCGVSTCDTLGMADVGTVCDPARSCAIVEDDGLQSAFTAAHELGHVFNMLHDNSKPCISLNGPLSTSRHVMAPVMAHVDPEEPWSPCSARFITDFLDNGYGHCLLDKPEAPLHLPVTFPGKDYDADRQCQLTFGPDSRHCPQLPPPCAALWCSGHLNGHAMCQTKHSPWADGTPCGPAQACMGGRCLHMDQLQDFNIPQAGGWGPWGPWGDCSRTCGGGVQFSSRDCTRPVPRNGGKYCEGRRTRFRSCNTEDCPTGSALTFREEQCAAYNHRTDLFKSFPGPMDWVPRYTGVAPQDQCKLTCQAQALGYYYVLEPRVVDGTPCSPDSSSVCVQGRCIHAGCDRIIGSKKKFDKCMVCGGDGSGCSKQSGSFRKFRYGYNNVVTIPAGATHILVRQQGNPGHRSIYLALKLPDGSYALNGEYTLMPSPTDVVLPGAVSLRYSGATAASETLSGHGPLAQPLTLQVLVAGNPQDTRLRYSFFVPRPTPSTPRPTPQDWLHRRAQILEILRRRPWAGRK
pIC50: −log10 of the molar value.

smiles.input: CC(C)[C@H](NS(=O)(=O)c1ccc2c(c1)oc1ccc(N3CCOC3=O)cc12)C(=O)O
pIC50: 4.74

----------
# assay.system: Interstitial collagenase (Homo sapiens, UniProt P03956)
# Sequence (P03956 whole entry): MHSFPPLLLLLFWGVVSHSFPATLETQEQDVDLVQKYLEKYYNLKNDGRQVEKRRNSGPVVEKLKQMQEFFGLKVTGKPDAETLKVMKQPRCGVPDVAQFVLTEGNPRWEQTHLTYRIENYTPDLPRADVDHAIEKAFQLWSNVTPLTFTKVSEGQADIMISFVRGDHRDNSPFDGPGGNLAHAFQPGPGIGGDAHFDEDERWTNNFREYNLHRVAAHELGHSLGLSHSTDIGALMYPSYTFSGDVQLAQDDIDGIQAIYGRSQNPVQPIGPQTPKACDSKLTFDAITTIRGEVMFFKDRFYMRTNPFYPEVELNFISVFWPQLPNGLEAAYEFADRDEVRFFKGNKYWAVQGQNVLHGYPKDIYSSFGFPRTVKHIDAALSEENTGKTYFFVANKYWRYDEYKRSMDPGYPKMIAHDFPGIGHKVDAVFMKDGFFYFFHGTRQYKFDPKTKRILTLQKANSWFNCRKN
# assay.summary: Inhibition of human MMP1

smiles.input: CC(C)[C@H](NS(=O)(=O)c1ccc2c(c1)oc1ccc(N3CCOC3=O)cc12)C(=O)O
IC50 (µM): 5.46

----------
# assay.system: Neutrophil collagenase (Homo sapiens)
# Sequence (P22894 whole entry): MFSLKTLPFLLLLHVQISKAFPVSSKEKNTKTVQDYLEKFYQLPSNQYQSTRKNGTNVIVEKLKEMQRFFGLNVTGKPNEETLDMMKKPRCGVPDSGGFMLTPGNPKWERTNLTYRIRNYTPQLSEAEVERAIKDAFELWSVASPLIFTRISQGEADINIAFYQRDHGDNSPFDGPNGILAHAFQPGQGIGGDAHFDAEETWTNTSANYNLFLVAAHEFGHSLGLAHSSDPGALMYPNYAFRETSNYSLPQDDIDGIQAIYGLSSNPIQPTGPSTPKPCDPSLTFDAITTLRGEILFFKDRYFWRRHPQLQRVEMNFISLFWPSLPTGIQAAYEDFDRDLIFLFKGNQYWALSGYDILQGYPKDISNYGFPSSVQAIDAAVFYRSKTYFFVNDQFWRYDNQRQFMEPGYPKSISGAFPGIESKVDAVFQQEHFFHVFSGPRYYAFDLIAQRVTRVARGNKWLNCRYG
# assay.summary: Inhibition of human MMP8
readout: IC50 (nM)

smiles.input: CC(C)[C@H](NS(=O)(=O)c1ccc2c(c1)oc1ccc(N3CCOC3=O)cc12)C(=O)O
reported.measurement: 37

----------
# assay.system: Stromelysin-1 (Homo sapiens, UniProt P08254)
# Sequence (P08254 whole entry): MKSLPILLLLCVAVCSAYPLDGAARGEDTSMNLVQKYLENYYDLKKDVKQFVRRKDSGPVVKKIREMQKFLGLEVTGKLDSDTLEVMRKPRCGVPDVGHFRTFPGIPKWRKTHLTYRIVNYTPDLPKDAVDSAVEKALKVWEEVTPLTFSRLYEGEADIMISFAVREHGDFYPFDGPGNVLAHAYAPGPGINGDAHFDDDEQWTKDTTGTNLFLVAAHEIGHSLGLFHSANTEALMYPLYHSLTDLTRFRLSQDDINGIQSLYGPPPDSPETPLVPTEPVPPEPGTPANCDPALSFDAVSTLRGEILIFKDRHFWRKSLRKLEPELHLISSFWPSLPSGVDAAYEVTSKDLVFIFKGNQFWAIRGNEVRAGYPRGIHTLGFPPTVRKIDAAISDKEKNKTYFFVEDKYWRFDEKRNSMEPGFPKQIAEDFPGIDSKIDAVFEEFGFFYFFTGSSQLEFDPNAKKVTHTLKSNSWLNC
# assay.summary: Inhibition of human MMP3

smiles.input: CC(C)[C@H](NS(=O)(=O)c1ccc2c(c1)oc1ccc(N3CCOC3=O)cc12)C(=O)O
IC50: 300 nM

----------
# assay.summary: Half life in C57BL/6 mouse at 30 mg/kg, po
# Assay type: ADME, organism-based
# Parameters: dose 30 mg/kg, route oral
# stated.conditions: in vivo

smiles.input: COC(=O)Nc1ccc2sc3cc(S(=O)(=O)N[C@@H](C(=O)O)C(C)C)ccc3c2c1
half-life (h): 4.6
--
smiles.input: COC(=O)Nc1ccc2sc3cc(S(=O)(=O)N[C@H](C(=O)O)C(C)C)ccc3c2c1
half-life (h): 3.1

----------
# assay.summary: Metabolic stability in C57BL/6 mouse liver microsome assessed as half life
# Type: ADME
# stated.conditions: liver microsomes

smiles.input: CC(C)[C@H](NS(=O)(=O)c1ccc2c(c1)sc1cc(N3CCOC3=O)ccc12)C(=O)O
half-life: > 30 min
//
smiles.input: CC(C)[C@H](NS(=O)(=O)c1ccc2c(c1)oc1cc(N)ccc12)C(=O)O
half-life: > 30 min
//
smiles.input: CC(C)OC(=O)Nc1ccc2c(c1)sc1cc(S(=O)(=O)N[C@H](C(=O)O)C(C)C)ccc12
half-life: > 30 min
//
smiles.input: CC(C)[C@H](NS(=O)(=O)c1ccc2c(c1)sc1cc(NC(=O)NCc3ccccc3)ccc12)C(=O)O
half-life: > 30 min
//
smiles.input: CC(C)[C@H](NS(=O)(=O)c1ccc2c(c1)oc1cc(NC(=O)NCCc3cccs3)ccc12)C(=O)O
half-life: > 30 min
//
smiles.input: CC(C)[C@H](NS(=O)(=O)c1ccc2c(c1)sc1cc(NC(=O)NCCc3cccs3)ccc12)C(=O)O
half-life: > 30 min
//
smiles.input: COC(=O)Nc1ccc2c(c1)oc1cc(S(=O)(=O)N[C@H](C(=O)O)C(C)C)ccc12
half-life: > 30 min
//
smiles.input: COC(=O)Nc1ccc2sc3cc(S(=O)(=O)N[C@@H](C(=O)O)C(C)C)ccc3c2c1
half-life: > 30 min
//
smiles.input: COC(=O)Nc1ccc2sc3cc(S(=O)(=O)N[C@H](C(=O)O)C(C)C)ccc3c2c1
half-life: > 30 min
//
smiles.input: COC(=O)Nc1ccc2c(c1)sc1ccc(S(=O)(=O)N[C@@H](C(=O)O)C(C)C)cc12
half-life: > 30 min
//
smiles.input: C#CCCOC(=O)Nc1ccc2c(c1)sc1cc(S(=O)(=O)N[C@H](C(=O)O)C(C)C)ccc12
half-life: > 30 min
//
smiles.input: COC(=O)Nc1ccc2c(c1)oc1cc(S(=O)(=O)N[C@@H](C(=O)O)C(C)C)ccc12
half-life: > 30 min
//
smiles.input: CC(C)[C@@H](NS(=O)(=O)c1ccc2c(c1)sc1cc(NC(=O)Nc3ccccc3)ccc12)C(=O)O
half-life: > 30 min
//
smiles.input: CCNC(=O)Nc1ccc2c(c1)sc1cc(S(=O)(=O)N[C@H](C(=O)O)C(C)C)ccc12
half-life: > 30 min
//
smiles.input: Cc1ccc(OC(=O)Nc2ccc3c(c2)sc2cc(S(=O)(=O)N[C@H](C(=O)O)C(C)C)ccc23)cc1
half-life: > 30 min
//
smiles.input: CCOC(=O)Nc1ccc2c(c1)sc1cc(S(=O)(=O)N[C@@H](C(=O)O)C(C)C)ccc12
half-life: > 30 min
//
smiles.input: CC(C)[C@H](NS(=O)(=O)c1ccc2c(c1)sc1cc(NC(=O)NC3CCCC3)ccc12)C(=O)O
half-life: > 30 min
//
smiles.input: CCOC(=O)Nc1ccc2oc3cc(S(=O)(=O)N[C@H](C(=O)O)C(C)C)ccc3c2c1
half-life: > 30 min
